We begin with a simple list: items and their reported Kochia plant response rating.
Test system: kochia
measurement.notes: Test A postemergence
Assay type: in vivo, Bassia scoparia
assay.conditions: 125 g ai/ha, postemergence, 10 days; 0 to 100 scale, 0 no effect, 100 complete control

[
  {
    "compound": "CC(C)c1ncn(-c2ccc(OC(F)F)c(C(=O)N3C[C@H](C)Oc4c(Cl)cccc43)c2)n1 [Compound 143]",
    "Kochia plant response rating": 90
  },
  {
    "compound": "CC(C)c1ncn(-c2ccc(OC(F)(F)F)c(C(=O)N3C[C@H](C)Oc4c(Cl)cccc43)c2)n1 [Compound 111]",
    "Kochia plant response rating": 80
  },
  {
    "compound": "Cc1ccc(-n2cnc(CO)n2)cc1C(=O)N1C[C@H](C)Oc2c(Cl)cccc21 [Compound 148]",
    "Kochia plant response rating": 50
  },
  {
    "compound": "CCc1ncn(-c2cccc(C(=O)N3C[C@H](C)Oc4c(Cl)cccc43)c2)n1 [Compound 91]",
    "Kochia plant response rating": 80
  },
  {
    "compound": "CCOc1ccc(-n2cnc(C(C)C)n2)cc1C(=O)N1C[C@H](C)Oc2c(Cl)cccc21 [Compound 106]",
    "Kochia plant response rating": 90
  },
  {
    "compound": "CCc1ncn(-c2ccc(CC)c(C(=O)N3C[C@H](C)Oc4c(Cl)cccc43)c2)n1 [Compound 95]",
    "Kochia plant response rating": 80
  }
]
